molecular target: T1, MET928 (cMET protein derived from construct 25-928) (human, UniProt P08581 25-928); experiment: ELISA, soluble scFv
T1 construct: MET ectodomain, residues 1-24 are the leader; produced in Lec 8 cells; background text says the ectodomain is furin-cleaved into alpha (25-307) and beta chains; biotinylated form used in selections; also called MET928 extracellular domain; Met extracellular domain
T1 sequence (P08581 25-928): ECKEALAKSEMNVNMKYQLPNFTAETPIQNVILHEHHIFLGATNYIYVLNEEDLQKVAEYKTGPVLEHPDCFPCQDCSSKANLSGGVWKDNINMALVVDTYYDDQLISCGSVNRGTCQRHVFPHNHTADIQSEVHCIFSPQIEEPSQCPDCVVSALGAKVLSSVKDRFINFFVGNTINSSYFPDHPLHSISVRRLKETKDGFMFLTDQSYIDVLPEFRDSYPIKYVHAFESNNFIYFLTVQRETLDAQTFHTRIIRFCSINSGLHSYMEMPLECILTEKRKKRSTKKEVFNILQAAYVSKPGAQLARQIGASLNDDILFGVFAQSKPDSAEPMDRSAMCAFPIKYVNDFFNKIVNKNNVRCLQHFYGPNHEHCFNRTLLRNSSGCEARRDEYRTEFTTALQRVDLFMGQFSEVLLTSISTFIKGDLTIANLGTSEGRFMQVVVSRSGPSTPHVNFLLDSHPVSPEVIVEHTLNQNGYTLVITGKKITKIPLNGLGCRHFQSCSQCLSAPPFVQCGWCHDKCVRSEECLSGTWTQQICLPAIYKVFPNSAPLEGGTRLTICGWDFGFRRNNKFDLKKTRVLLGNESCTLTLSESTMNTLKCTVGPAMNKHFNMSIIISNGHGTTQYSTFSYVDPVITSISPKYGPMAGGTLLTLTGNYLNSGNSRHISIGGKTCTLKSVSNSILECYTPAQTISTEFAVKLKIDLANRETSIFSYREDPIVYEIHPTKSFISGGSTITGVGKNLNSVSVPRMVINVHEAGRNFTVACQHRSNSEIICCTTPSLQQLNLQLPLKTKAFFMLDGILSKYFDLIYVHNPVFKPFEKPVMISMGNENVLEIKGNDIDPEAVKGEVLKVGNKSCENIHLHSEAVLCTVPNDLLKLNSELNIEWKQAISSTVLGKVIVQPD
Test readout: binding result

binder="108_G6 (scFv, not shown: 6xHis/tri-FLAG tags) scFv: QMQLVQSGAEVKKPGAPVKVSCKVSGYTFTDYYMHWVQQAPGKGLEWMGLVDPEDGETIYAEKFQGRVTITADTSTDTAYMELSSLRSEDTAVYYCATDATTPYWFPVWWGQGTLVTVSSLEGGGGSGGGGSGGGASDIQMTQSPSSLSASVGDRVTITCQASQDISNYLNWYQQKPGRAPKVLIYDASNLETGVPSRFSGSGSGTEFTLTISNLRPDDFATYYCQQGDSFPLTFGGGTKVEIK" assay_result=binds
binder="107_B8 (scFv, not shown: 6xHis/tri-FLAG tags) scFv: QMQLVQSGAEVKKPGAPVKVSCKVSGYTFTDYYMHWVQQAPGKGLEWMGLVDPEDGETIYAEKFQGRVTITADTSTDTAYMELSSLRSEDTAVYYCATDATTPYWGMAEWGQGTLVTVSSLEGGGGSGGGGSGGGASDIQMTQSPSSLSASVGDRVTITCQASQDISNYLNWYQQKPGRAPKVLIYDASNLETGVPSRFSGSGSGTEFTLTISNLRPDDFATYYCQQGDSFPLTFGGGTKVEIK" assay_result=binds
binder="108_F11 (scFv, not shown: 6xHis/tri-FLAG tags) scFv: QMQLVQSGAEVKKPGAPVKVSCKVSGYTFTDYYMHWVQQAPGKGLEWMGLVDPEDGETIYAEKFQGRVTITADTSTDTAYMELSSLRSEDTAVYYCATDGSNLSWQMDVWGQGTLVTVSSLEGGGGSGGGGSGGGASDIQMTQSPSSLSASVGDRVTITCQASQDISNYLNWYQQKPGRAPKVLIYDASNLETGVPSRFSGSGSGTEFTLTISNLRPDDFATYYCQQGDSFPLTFGGGTKVEIK" assay_result=binds

// data source = patent US20150147274A1
